System: HOP-62 NSCLC
Assay: NCI-60 one-dose screen, 48 h (100 = growth as untreated, 0 = no growth, -100 = all killed)
Settings: 10 µM unless noted
Compounds without any hit were thinned out: in the full panel of roughly 83,000, 20% have a hit. Calls of active or inactive are those of the source. How the source made its calls: active means growth percent below 10; inactive means the rest.
PARAMETER_MEASURED: growth

In: Need growth of "C#CCOc1ccc2ncnc(N3CCC(NC(=O)CCl)CC3)c2c1" , thanks.
Out: 68.2% [8.25 µM] (inactive)

In: What growth value was documented for this molecule, Cc1cc(N2CCCCCC2)nc(NC2CCCC(Nc3ccnc4cc(Cl)ccc34)C2)n1 (stereo not given) ?
Out: -83% (active)

In: Can you share its growth? I mean this molecule: "COc1ccc(-c2cc(Nc3ccnc(N4CCOCC4)n3)on2)cc1"
Out: 40.9% (inactive)

In: Using the record for "O=C(N/N=C/c1ccccc1O)c1ccccc1Nc1ccnc(C(F)(F)F)c1" , report its growth.
Out: -5.32% (active)

In: Please look up its growth: "CCCCC[C@H]1C/C=C2/C(=O)C=C[C@@H]2C/C=C\CCCC(=O)O1"
Out: -46.3% (active)

In: Given the entry "Cc1cc(C)nc(SC2=C(Nc3cc(Cl)ccc3O)C(=O)N(Cc3ccccc3)C2=O)n1" , report its measured growth.
Out: 102% [30 µM] (inactive)

In: Query (molecule): "Nc1ccc(-c2cc3c(NCc4ccccc4)ncnc3s2)cc1" ; field requested: growth
Out: 92.1% (inactive)

In: For the molecule "c1ccc(Cn2cc(-c3nc4ccccc4s3)c3cccnc32)cc1" , what growth is on record?
Out: 96.1% (inactive)

In: Can you share its growth? I mean this molecule: "Cc1ccccc1COc1ccc(-c2onc(C)c2-c2ccc(Cl)cc2)cc1"
Out: 51.6% (inactive)

In: Need growth of Cc1ccc(C2=NN3C(C2)c2cc(Br)ccc2OC32CCN(Cc3ccccc3)CC2)o1 (stereo not given) , thanks.
Out: 104% (inactive)
